assayProcedure: Cannabinoid content of cannabis extract (Example 2a)
Type: physicochemical
protocolConditions: methanol/chloroform 9:1 cannabis extract
Hi, to clarify the labels: rule met covers percentage of each cannabinoid relative to total cannabinoids, Extract from 1 percentage upward, rule not met covers anything below 1 percentage.

compound	cat
C=C(C)[C@@H]1CCC(C)=C[C@H]1c1c(O)cc(CCCCC)cc1O [CBD, cannabidiol, reference compound]	rule not met
CCCCCc1cc(O)c2c(c1)OC(C)(C)[C@@H]1CCC(C)=C[C@@H]21 [THC, tetrahydrocannabinol, reference compound]	rule met
CCCCCc1cc(O)c(C/C=C(\C)CCC=C(C)C)c(O)c1C(=O)O	rule met
CCCCCc1cc2c(c(O)c1C(=O)O)[C@@H]1C=C(C)CC[C@H]1C(C)(C)O2 [THCA, tetrahydrocannabinoic acid]	rule met
CCCCCc1cc(O)c2c(c1)OC(C)(C)c1ccc(C)cc1-2	rule met

# next compound below
Please tell me: is the compound CCCCCc1cc(O)c(C/C=C(\C)CCC=C(C)C)c(O)c1 at or over 1 percentage in terms of percentage of each cannabinoid relative to total cannabinoids, Extract?
rule met

====

systemTested: UniProt:P02769
Sequence (P02769 25-607): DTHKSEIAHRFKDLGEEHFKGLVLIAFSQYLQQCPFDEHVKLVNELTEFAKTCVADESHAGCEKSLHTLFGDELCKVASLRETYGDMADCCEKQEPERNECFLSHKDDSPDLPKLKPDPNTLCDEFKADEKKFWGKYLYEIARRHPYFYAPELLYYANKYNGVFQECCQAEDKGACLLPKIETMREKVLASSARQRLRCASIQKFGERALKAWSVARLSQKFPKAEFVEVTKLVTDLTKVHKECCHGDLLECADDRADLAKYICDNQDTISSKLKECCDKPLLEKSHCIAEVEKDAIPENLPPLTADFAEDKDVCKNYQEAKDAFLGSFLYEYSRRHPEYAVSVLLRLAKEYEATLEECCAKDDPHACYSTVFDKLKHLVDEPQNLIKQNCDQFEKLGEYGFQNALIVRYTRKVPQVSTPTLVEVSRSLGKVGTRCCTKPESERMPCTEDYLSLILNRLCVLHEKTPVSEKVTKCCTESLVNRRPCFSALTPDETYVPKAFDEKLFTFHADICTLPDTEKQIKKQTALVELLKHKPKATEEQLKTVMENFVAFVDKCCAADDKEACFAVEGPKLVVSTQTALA
assayProcedure: Ethanolic cannabinoid solution mixed with aqueous albumin, protein-bound cannabinoid quantified (Example 2b)
Assay type: binding, bovine
Parameters: unit not given beside the values
protocolConditions: 100 microliters ethanolic solution + 500 microliters 5 mg/ml BSA, 30° C., 12 hours, non-adsorbed cannabinoids separated
metric: protein-bound cannabinoid quantified, Vapor

compound	value
C=C(C)[C@@H]1CCC(C)=C[C@H]1c1c(O)cc(CCCCC)cc1O [CBD, cannabidiol, reference compound]	0
CCCCCc1cc(O)c(C/C=C(\C)CCC=C(C)C)c(O)c1C(=O)O [CBGA, cannabigerolic acid]	1.43
CCCCCc1cc(O)c2c(c1)OC(C)(C)[C@@H]1CC=C(C)C[C@@H]21 [DELTA-8-THC]	4.6

Which protein-bound cannabinoid quantified, Vapor is reported with UniProt:P02769 for this entry: CCCCCc1cc(O)c2c(c1)OC(C)(CCC=C(C)C)C=C2 (stereo not drawn) [CBC, cannabichromene] ?
1.845

Note, next up: CCCCCc1cc(O)c(C/C=C(\C)CCC=C(C)C)c(O)c1 [CBG, cannabigerol]
11.685

Note, next up: CCCCCc1cc(O)c2c(c1)OC(C)(C)c1ccc(C)cc1-2 [CBN, cannabinol]
4.855

====

Measured protein-bound cannabinoid quantified, Vapor, listed per entry.
systemTested: UniProt:P02769
assayProcedure: Ethanolic cannabinoid solution mixed with aqueous albumin, protein-bound cannabinoid quantified (Example 2b)
Type: binding, bovine
Parameters: unit not given beside the values
protocolConditions: 100 microliters ethanolic solution + 500 microliters 5 mg/ml BSA, 30° C., 12 hours, non-adsorbed cannabinoids separated
Just the number, please.

Worked cases, protein-bound cannabinoid quantified, Vapor given:
compound	value
C=C(C)[C@@H]1CCC(C)=C[C@H]1c1c(O)cc(CCCCC)c(C(=O)O)c1O [CBDA, cannabidiolic acid]	0
CCCCCc1cc2c(c(O)c1C(=O)O)[C@@H]1C=C(C)CC[C@H]1C(C)(C)O2 [THCA, tetrahydrocannabinoic acid]	4.26

Would you kindly look at the next entry?
# protein-bound cannabinoid quantified, Vapor lookup, item CCCCCc1cc(O)c2c(c1)OC(C)(C)[C@@H]1CCC(C)=C[C@@H]21 [THC, tetrahydrocannabinol, reference compound]
131.955
